Where these numbers come from: ChEMBL document CHEMBL6127051

System: AR-42J cell line
Assay comment: Antiproliferative activity against AR42J cells assessed as reduction in cell viability incubated for 24 hrs by MTT colorimetric assay
Assay type: functional, cell-based
Particulars: Rattus norvegicus

Chemical string: O=C(CNc1nc2ccccc2n1C(=O)Nc1ccccc1)NNC(=O)Nc1ccccc1
System tested: AR-42J cell line
IC50: 304 µM

###

Assay comment: Half life in rat at 2 mg/kg, po by LC-MS/MS analysis
Assay type: ADME, organism-based
Particulars: in vivo

Chemical string: O=C1NCCN(c2ccccc2)N1
half-life / h: 3.3

###

Assay comment: Antiproliferative activity against human MRC5 cells assessed as reduction in cell growth
Type: toxicity, cell-based

Chemical string: COc1ccc(NC(=O)NNC(=O)c2oc3ccccc3c2CN2CCN(c3ccccc3)CC2)cn1
IC50 / µM: 74

###

Assay comment: Inhibition of Lipoxygenase (unknown origin)
Set-up: species or system Homo sapiens
Measured property: IC50 (µM)

Molecule: CC(C(=O)O)c1cccc(Oc2ccccc2)c1 (stereo unspecified) [FENOPROFEN]
Value measured: 60

###

Test system: NCI-H1563
Assay comment: Antiproliferative activity against human NCI-H1563 cells assessed as reduction in cell growth incubated for 24 hrs by MTT assay
Format: functional, cell-based
Particulars: NCI-H1563, 24 h
pIC50: −log10 of the molar value.

Chemical string: CCNC(=O)NNC(=O)c1ccc([N+](=O)[O-])cc1
pIC50: 3.47

###

Test system: MCF7
Assay comment: Antiproliferative activity against human MCF7 cells
Assay type: functional, cell-based
pIC50: −log10 of the molar value.

Chemical string: Cc1ccc(NC(=O)NNC(=O)c2cc3ccccc3[nH]2)cc1
pIC50: 5.04

###

Assay comment: Tmax in rat at 2 mg/kg, po by LC-MS/MS analysis
Format: ADME, organism-based
Particulars: in vivo

Chemical string: O=C1NCCN(c2ccccc2)N1
Tmax, h: 1

###

Assay comment: Cytotoxicity against human HEK cells
Format: toxicity, cell-based
Measured property: IC50 (µg/mL)

Chemical string: CCc1nc2cc(Cl)c(Cl)cc2n1CC(=O)NNC(=O)Nc1ccccc1
Value measured: 127

###

System: HepG2
Assay comment: Antiproliferative activity against human HepG2 cells assessed as reduction in cell growth incubated for 48 hrs by MTT assay
Type: functional, cell-based
Particulars: HepG2, 48 h

Chemical string: CCNC(=O)NNC(=O)c1ccc([N+](=O)[O-])cc1
IC50 [µM]: 1930

###

Below, each entry is listed alongside its reported pIC50.
System tested: Cholinesterase (Equus caballus, UniProt P81908)
Sequence (P81908 whole entry): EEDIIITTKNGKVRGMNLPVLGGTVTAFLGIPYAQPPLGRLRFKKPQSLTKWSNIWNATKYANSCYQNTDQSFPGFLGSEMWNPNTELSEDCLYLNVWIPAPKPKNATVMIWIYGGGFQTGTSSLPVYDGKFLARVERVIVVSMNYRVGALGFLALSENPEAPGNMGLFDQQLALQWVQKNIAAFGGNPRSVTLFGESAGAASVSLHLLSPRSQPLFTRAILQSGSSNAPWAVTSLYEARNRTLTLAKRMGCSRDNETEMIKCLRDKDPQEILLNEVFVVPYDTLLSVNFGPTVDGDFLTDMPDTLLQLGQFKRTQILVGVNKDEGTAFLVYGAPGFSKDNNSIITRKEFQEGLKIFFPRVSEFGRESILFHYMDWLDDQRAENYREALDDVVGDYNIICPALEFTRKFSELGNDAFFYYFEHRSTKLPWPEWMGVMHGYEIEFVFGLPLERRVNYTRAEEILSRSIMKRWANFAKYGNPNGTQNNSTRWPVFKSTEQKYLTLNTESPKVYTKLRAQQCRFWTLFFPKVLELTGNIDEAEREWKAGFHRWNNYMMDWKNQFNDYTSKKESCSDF
Assay comment: Inhibition of equine serum BChE using butyrylthiocholine iodide as substrate measured after 15 mins by Ellman's method
pIC50: −log10 of the molar value.
Measured property: pIC50

Chemical string: CNC(=O)NNC(=O)c1ccc(Cl)cc1
Value measured: 4.66
--
Chemical string: CCCCCCCCCCCCCNC(=O)NNC(=O)c1ccc(C(F)(F)F)cc1
Value measured: 4.24
--
Chemical string: CCCCCCCCCCCCCCCNC(=O)NNC(=O)c1ccc(C(F)(F)F)cc1
Value measured: 4.24
--
Chemical string: CCCCCCCCCCCCCNC(=O)NNC(=O)c1cccc(Br)c1
Value measured: 4.66

###

Test system: NCI-H460
Assay comment: Antiproliferative activity against human NCI-H460 cells by MTT assay
Type: functional, cell-based
Below, each entry is listed alongside its reported IC50.

Chemical string: Cc1nc(-c2cccnc2)ccc1C(=O)NNC(=O)Nc1c(Cl)cc(Cl)cc1Cl
IC50, µM: 8.89
//
Chemical string: Cc1nc(-c2cccnc2)ccc1C(=O)NNC(=O)Nc1ccc(F)cc1F
IC50, µM: 8.89
